We begin with a simple list: items and their reported IC50.
# system: Met kinase domain (GST fusion protein) (Homo sapiens)
# Construct: Purified GST fusion protein containing the Met kinase domain
# assay_explanation: Met transphosphorylation assay (ELISA, poly(glu-tyr) substrate)
# Type: biochemical
# condition_context: plain numbers in column Met IC50 (μM) of Table 2; read-out: Met IC50
State the value, then name its unit.

[
  {
    "compound": "CC(Oc1cc(OCCC2CCCCC2)cnc1N)c1c(F)ccc(F)c1Cl (stereo not shown) [Example I-536]",
    "IC50": "7.5 µM"
  },
  {
    "compound": "CC(=O)N1CCN(CC(=O)NCC#Cc2cnc(N)c(OC(C)c3c(Cl)ccc(F)c3Cl)c2)CC1 (stereo not shown) [Example I-431]",
    "IC50": "0.027 µM"
  },
  {
    "compound": "CC(Oc1cc(-c2ccc(C(=O)NCCN3CCOCC3)cc2)cnc1N)c1c(Cl)cccc1Cl (stereo not shown) [Example I-401]",
    "IC50": "0.073 µM"
  }
]

--- query ---
Provide IC50 value for the following compound: CC(C)CCOc1cnc(N)c(OC(C)c2c(F)ccc(F)c2Cl)c1 (stereo not shown) [Example I-531]
2.4 µM

====

We begin with a simple list: items and their reported pIC50.
# system: Met kinase domain (GST fusion protein) (Homo sapiens)
# Construct: Purified GST fusion protein containing the Met kinase domain
# assay_explanation: Met transphosphorylation assay (ELISA, poly(glu-tyr) substrate)
# Type: biochemical
# condition_context: Table 2; read-out: Met IC50
Friendly reminder that pIC50 comes from taking -log10 of the concentration in mol/L.

[
  {
    "compound": "Nc1ncc(-c2cccc(C(=O)N3CCC(N)CC3)c2)cc1OCc1c(F)ccc(F)c1Cl",
    "pIC50": 6.64
  },
  {
    "compound": "CC(Oc1cc(-c2ccc(NS(=O)(=O)CCN3CC[C@@H](O)C3)cc2)cnc1N)c1c(Cl)ccc(F)c1Cl (stereo partly shown)",
    "pIC50": 7.21
  },
  {
    "compound": "Nc1ncc(-c2ccc(C(=O)NCCN3CCOCC3)cc2)cc1OCc1c(F)ccc(F)c1Cl",
    "pIC50": 6.78
  },
  {
    "compound": "CC(Oc1cc(-c2cccc(C(=O)NCCCN3CCCC3)c2)cnc1N)c1c(F)ccc(F)c1Cl (stereo not shown)",
    "pIC50": 6.68
  },
  {
    "compound": "CC(Oc1cc(-c2ccc(C(=O)N3CCN(C)CC3)cc2)cnc1N)c1c(F)ccc(F)c1Cl (stereo not shown)",
    "pIC50": 7.11
  }
]

Provide pIC50 value for the following compound: CC(Oc1cc(-c2cccc(C(=O)NCCN3CCOCC3)c2)cnc1N)c1c(F)ccc(F)c1Cl (stereo not shown)
6.41

Provide pIC50 value for the following compound: CN(C)CCS(=O)(=O)Nc1ccc(-c2cnc(N)c(OCc3c(F)ccc(F)c3Cl)c2)cc1
7.01

====

We begin with a simple list: items and their reported inhibition at 0.05 µM.
# system: HGFR (Homo sapiens, UniProt P08581)
# Construct: purchased Upstate 14-526
# Sequence (P08581 974-1390 limits assumed): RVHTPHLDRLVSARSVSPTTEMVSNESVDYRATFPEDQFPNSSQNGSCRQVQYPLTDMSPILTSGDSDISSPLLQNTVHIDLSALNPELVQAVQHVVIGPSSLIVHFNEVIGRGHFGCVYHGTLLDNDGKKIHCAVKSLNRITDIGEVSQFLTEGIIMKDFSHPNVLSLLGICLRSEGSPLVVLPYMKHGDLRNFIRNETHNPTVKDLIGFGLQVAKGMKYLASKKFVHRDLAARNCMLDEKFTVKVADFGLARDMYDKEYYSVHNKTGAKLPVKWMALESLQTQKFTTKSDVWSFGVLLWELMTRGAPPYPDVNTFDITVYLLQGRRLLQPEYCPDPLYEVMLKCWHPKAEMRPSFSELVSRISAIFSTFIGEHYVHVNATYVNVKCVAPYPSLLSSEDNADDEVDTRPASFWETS
# assay_explanation: HGFR continuous-coupled spectrophotometric assay
# Assay type: biochemical
# condition_context: at 50 nM; Table 5, library procedure 40; read-out: % inhibition (percent c-MET inhibition)
All answers are understood in %, so give the number only.

Use these answered entries as a reference point.
[
  {
    "molecule": "CCCN1CCN(C(=O)c2ccc(-c3cnc(N)c(OC(C)c4c(Cl)ccc(F)c4Cl)c3)cc2)CC1 [Example L-129]",
    "system": "HGFR (Homo sapiens, UniProt P08581)",
    "value_measured": 82
  },
  {
    "molecule": "CC(Oc1cc(-c2ccc(C(=O)NCCCN3CCOCC3)cc2)cnc1N)c1c(Cl)ccc(F)c1Cl [Example L-2]",
    "system": "HGFR (Homo sapiens, UniProt P08581)",
    "value_measured": 59
  }
]

Provide inhibition at 0.05 µM value for the following molecule: CC(Oc1cc(-c2ccc(C(=O)NC3CCN(Cc4ccccc4)CC3)cc2)cnc1N)c1c(Cl)ccc(F)c1Cl [Example L-4]
47

Provide inhibition at 0.05 µM value for the following molecule: CC(Oc1cc(-c2ccc(C(=O)NCCCN(C)C)cc2)cnc1N)c1c(Cl)ccc(F)c1Cl [Example L-16]
83

Provide inhibition at 0.05 µM value for the following molecule: CC(Oc1cc(-c2ccc(C(=O)NCc3ccc(OC(F)(F)F)cc3)cc2)cnc1N)c1c(Cl)ccc(F)c1Cl [Example L-77]
54

Provide inhibition at 0.05 µM value for the following molecule: CC(Oc1cc(-c2ccc(C(=O)N3CCC(Oc4ccccc4)CC3)cc2)cnc1N)c1c(Cl)ccc(F)c1Cl [Example L-151]
58

Provide inhibition at 0.05 µM value for the following molecule: CC(Oc1cc(-c2ccc(C(=O)N3CCNC(=O)C3)cc2)cnc1N)c1c(Cl)ccc(F)c1Cl [Example L-168]
90

====

We begin with a simple list: items and their reported IC50.
# system: Met kinase domain (GST fusion protein) (Homo sapiens, UniProt P08581)
# Construct: Purified GST fusion protein containing the Met kinase domain
# Sequence (P08581 1078-1345 limits assumed): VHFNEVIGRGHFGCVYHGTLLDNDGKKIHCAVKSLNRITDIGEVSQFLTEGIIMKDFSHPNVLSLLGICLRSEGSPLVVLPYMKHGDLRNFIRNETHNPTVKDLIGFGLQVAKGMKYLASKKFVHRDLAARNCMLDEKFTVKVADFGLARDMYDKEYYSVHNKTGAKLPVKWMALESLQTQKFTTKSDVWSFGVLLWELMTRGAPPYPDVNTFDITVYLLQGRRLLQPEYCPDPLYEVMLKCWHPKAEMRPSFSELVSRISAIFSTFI
# assay_explanation: Met transphosphorylation assay (ELISA, poly(glu-tyr) substrate)
# Format: biochemical
# condition_context: read-out: Met IC50
All answers are understood in nM, so give the number only.

Use these answered entries as a reference point.
[
  {
    "compound": "CC(Oc1nc(-c2cccc(C(=O)N3CCC(N4CCCC4)CC3)c2)cnc1N)c1c(Cl)cccc1Cl (stereo not drawn)",
    "observed_property": "IC50",
    "unit": "nM",
    "value_measured": 170
  },
  {
    "compound": "CN1CCN(C(=O)c2ccc(-c3cnc(N)c(OCc4ccccc4Cl)c3)cc2)CC1",
    "observed_property": "IC50",
    "unit": "nM",
    "value_measured": 2100
  }
]

Provide IC50 value for the following compound: Nc1ncc(-c2cccc(C(=O)NCCCN3CCCC3)c2)nc1OCc1c(F)ccc(F)c1Cl
1480

Provide IC50 value for the following compound: CC(Oc1nc(-c2ccc(NC(=O)NC3CCN(C)CC3)cc2)cnc1N)c1c(Cl)ccc(F)c1Cl (stereo not drawn)
52

Provide IC50 value for the following compound: COc1ccc(-c2cnc(N)c(OCc3c(Cl)cccc3Cl)c2)cc1
6550

====

# system: Met kinase domain (GST fusion protein) (Homo sapiens)
# Construct: Purified GST fusion protein containing the Met kinase domain
# assay_explanation: Met transphosphorylation assay (ELISA, poly(glu-tyr) substrate)
# Assay type: biochemical
# condition_context: Table 2; read-out: Met IC50
We begin with a simple list: items and their reported IC50.
All answers are understood in nM, so give the number only.

Use these answered entries as a reference point.
[
  {
    "molecule": "Nc1ncc(-c2ccc(C(=O)O)cc2)cc1OCc1c(F)ccc(F)c1Cl",
    "unit": "nM",
    "IC50": 350
  },
  {
    "molecule": "CC(Oc1cc(-c2ccc(NS(=O)(=O)CCN3CC[C@@H](O)C3)cc2)cnc1N)c1c(F)ccc(F)c1Cl (stereo partly shown)",
    "unit": "nM",
    "IC50": 93
  },
  {
    "molecule": "CC(Oc1cc(-c2ccc(C(=O)N3CC[C@@H](N)C3)cc2)cnc1N)c1c(Cl)ccc(F)c1Cl (stereo partly shown)",
    "unit": "nM",
    "IC50": 72
  }
]

# return IC50 of Nc1ncc(-c2cccc(C(=O)NCCN3CCOCC3)c2)cc1OCc1c(F)ccc(F)c1Cl (system: Met kinase domain (GST fusion protein) (Homo sapiens))
350

# return IC50 of Nc1ncc(-c2ccc(NS(=O)(=O)CCN3CCCC3)cc2)cc1OCc1c(F)ccc(F)c1Cl (system: Met kinase domain (GST fusion protein) (Homo sapiens))
82

# return IC50 of CC(Oc1cc(-c2cccc(C(=O)N3C[C@@H](C)N[C@@H](C)C3)c2)cnc1N)c1c(F)ccc(F)c1Cl (stereo partly shown) (system: Met kinase domain (GST fusion protein) (Homo sapiens))
160

# return IC50 of CC(Oc1cc(-c2ccc(OCC(O)CN3CCOCC3)cc2)cnc1N)c1c(Cl)ccc(F)c1Cl (stereo not shown) (system: Met kinase domain (GST fusion protein) (Homo sapiens))
45

====

# system: Met kinase domain (GST fusion protein) (Homo sapiens)
# Construct: Purified GST fusion protein containing the Met kinase domain
# assay_explanation: Met transphosphorylation assay (ELISA, poly(glu-tyr) substrate);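 further: Cell-free ELISA with plate-bound poly(Glu:Tyr 4:1) phosphorylated by GST-fused Met kinase domain plus ATP and Mn2+, phosphotyrosine detected by anti-phosphotyrosine antibody with HRP and ABTS read-out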
# Assay type: biochemical
# condition_context: Table 2; read-out: Met IC50
observed_property: pIC50
Friendly reminder that pIC50 comes from taking -log10 of the concentration in mol/L.

[
  {
    "compound": "Nc1ncc(-c2ccc(NS(=O)(=O)CCN3CCOCC3)cc2)cc1OCc1c(F)ccc(F)c1Cl",
    "value_measured": 6.51
  },
  {
    "compound": "CC(Oc1cc(-c2ccc(OCCN3CCCC3)cc2)cnc1N)c1c(Cl)ccc(F)c1Cl (stereo not shown)",
    "value_measured": 7.17
  },
  {
    "compound": "CC(Oc1cc(-c2cccc(C(=O)NCCN3CCCC3)c2)cnc1N)c1c(Cl)ccc(F)c1Cl (stereo not shown)",
    "value_measured": 7.00
  },
  {
    "compound": "CN(C)[C@H]1CCN(C(=O)c2ccc(-c3cnc(N)c(OCc4c(F)ccc(F)c4Cl)c3)cc2)C1",
    "value_measured": 6.92
  },
  {
    "compound": "CN1CCN(C(=O)c2ccc(-c3cnc(N)c(OCc4ccc(C(C)(C)C)cc4)c3)cc2)CC1",
    "value_measured": 5.42
  }
]

# return pIC50 of CC(Oc1cc(-c2ccc(C(=O)N3C[C@@H](C)N[C@@H](C)C3)cc2)cnc1N)c1c(F)ccc(F)c1Cl (stereo partly shown) (system: Met kinase domain (GST fusion protein) (Homo sapiens))
7.05

# return pIC50 of CC(Oc1cc(-c2ccc(C(=O)N3CCN(C)CC3)cc2)cnc1N)c1c(Cl)ccc(F)c1Cl (stereo not shown) (system: Met kinase domain (GST fusion protein) (Homo sapiens))
7.10
